Consider the following molecules; for each one, report its O. volvulus iPGM PIC50, M.
Target: O. volvulus iPGM (Onchocerca volvulus, UniProt I6LDA6)
Sequence (I6LDA6 whole entry, looked up): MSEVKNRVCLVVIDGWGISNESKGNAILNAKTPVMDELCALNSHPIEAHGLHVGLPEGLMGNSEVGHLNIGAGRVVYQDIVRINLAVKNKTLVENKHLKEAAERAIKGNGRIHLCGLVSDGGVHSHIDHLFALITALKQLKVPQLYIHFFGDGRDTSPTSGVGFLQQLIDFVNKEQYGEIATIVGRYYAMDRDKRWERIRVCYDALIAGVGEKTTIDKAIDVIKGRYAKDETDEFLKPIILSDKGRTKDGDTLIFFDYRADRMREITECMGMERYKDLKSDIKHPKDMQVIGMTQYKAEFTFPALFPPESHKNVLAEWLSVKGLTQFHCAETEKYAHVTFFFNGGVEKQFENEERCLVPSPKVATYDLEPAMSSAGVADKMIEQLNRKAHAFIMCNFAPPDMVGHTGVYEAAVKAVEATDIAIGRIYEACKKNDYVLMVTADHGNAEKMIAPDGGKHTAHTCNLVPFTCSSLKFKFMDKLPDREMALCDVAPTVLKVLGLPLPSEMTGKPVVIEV
Test: biochemical
Where a SMILES comes first, the peptide text is derived from it. Bridges are numbered along the chain shown (N, C = ends). [ ]: non-standard residue; d: D form.
Answers are plain numbers, in M.

{"columns": ["molecule", "O. volvulus iPGM PIC50, M, M"],
 "data": [
  ["CC(C)C[C@@H]1NC(=O)[C@@H](Cc2ccc(O)cc2)NC(=O)CSC[C@@H](C(=O)N[C@@H](CO)C(=O)N[C@H](C(=O)N[C@@H](CS)C(=O)NCC(N)=O)[C@@H](C)O)NC(=O)[C@H](CC(N)=O)NC(=O)[C@@H]2CCCN2C(=O)[C@H](Cc2c[nH]c3ccccc23)NC(=O)[C@H](CC(=O)O)NC1=O [Bm-5] ({CH2CO}-[dY]LDWPNCSTCG-NH2; thioether N-7)", 5.99],
  ["CC[C@H](C)[C@@H]1NC(=O)[C@H](CCC(=O)O)NC(=O)[C@@H]2CCCN2C(=O)[C@H](C)NC(=O)[C@H](CC(N)=O)NC(=O)[C@@H]2CCCN2C(=O)[C@H](Cc2c[nH]c3ccccc23)NC(=O)[C@H](CO)NC(=O)[C@@H](Cc2ccc(O)cc2)NC(=O)CSC[C@@H](C(=O)N[C@@H](CS)C(=O)NCC(N)=O)NC(=O)[C@H](CCCCN)NC(=O)[C@H](Cc2c[nH]c3ccccc23)NC1=O [Bm-1] ({CH2CO}-[dY]SWPNAPEIWKCCG-NH2; thioether N-12)", 5.88]
]}

Request: // returns reported O. volvulus iPGM PIC50, M for input C[C@@H](O)[C@H](NC(=O)[C@H](CO)NC(=O)[C@@H]1CSCC(=O)N[C@H](Cc2ccc(O)cc2)C(=O)N2CCC[C@H]2C(=O)N[C@@H](CCC(=O)O)C(=O)N[C@@H](Cc2c[nH]c3ccccc23)C(=O)N2CCC[C@H]2C(=O)N[C@@H](CC(N)=O)C(=O)N1)C(=O)N[C@@H](CS)C(=O)NCC(N)=O [Bm-6] ({CH2CO}-[dY]PEWPNCSTCG-NH2; thioether N-7)
Result: 6.08
